Hello, the source for this data is paper PMC6445466, in case you need it.

# tested-system: T1, human C1r, full-length enzyme (human, UniProt P00736 18-705)
# T1 construct: complement C1r, human, 92 kDa, CUB1-EGF-CUB2-CCP1-CCP2-SP; bought as purified full-length enzyme; source: bought: Complement Technology (Tyler, TX), purified
# T1 sequence: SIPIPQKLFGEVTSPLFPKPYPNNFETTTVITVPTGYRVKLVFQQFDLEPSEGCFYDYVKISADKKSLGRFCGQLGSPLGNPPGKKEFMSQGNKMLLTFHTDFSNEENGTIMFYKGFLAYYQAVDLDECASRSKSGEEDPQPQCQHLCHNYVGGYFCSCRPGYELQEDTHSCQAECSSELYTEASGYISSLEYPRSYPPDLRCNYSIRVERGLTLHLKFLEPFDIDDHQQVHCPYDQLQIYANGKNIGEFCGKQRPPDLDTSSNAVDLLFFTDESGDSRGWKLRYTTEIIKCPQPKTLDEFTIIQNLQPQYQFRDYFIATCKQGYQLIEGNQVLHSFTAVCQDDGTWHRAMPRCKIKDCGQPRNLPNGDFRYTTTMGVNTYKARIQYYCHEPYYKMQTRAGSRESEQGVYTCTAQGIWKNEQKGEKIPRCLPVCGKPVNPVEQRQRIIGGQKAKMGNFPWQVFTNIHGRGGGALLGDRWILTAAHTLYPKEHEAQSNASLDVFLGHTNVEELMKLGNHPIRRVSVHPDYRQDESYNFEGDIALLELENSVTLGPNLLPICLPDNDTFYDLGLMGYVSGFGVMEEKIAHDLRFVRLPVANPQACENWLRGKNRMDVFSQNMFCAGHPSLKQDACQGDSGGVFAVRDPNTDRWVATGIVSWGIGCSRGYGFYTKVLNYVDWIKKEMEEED
# method-notes: SPR; Biacore T200, 25°C; borrelial protein immobilised by amine coupling; C1r as analyte, single-cycle kinetics, five-fold dilution series 1.6 to 1000 nM; HBS-T with 5 mM CaCl2; 1:1 kinetic fit; triplicate
# conditions: both partners purified
measured-attribute: koff (s⁻¹)
Report the figure in s⁻¹ without appending any unit label.

BXK32-C (BBK32-C E308K-Q319K-E324Q) (domain or fragment, Borrelia burgdorferi strain B31, UniProt O50835 206-354, looked up, BBK32, Borrelia burgdorferi strain B31, residues 206-354 (the limits of BBK32-C) with three residues changed to those of B. garinii BGD19; also called BBK32-E308K-Q319K-E324Q; chimeric BBK32-C; source: recombinant, E. coli codon-optimized synthetic DNA in pT7HMT, purified to homogeneity) SNRYQSYLEGVKYNVDSAIQTITKIYNTYTLFSTKLTQMYSTRLDNFAKAKAKEEAAKFTKEDLEKNFKTLLNYIQVSVKTAANFVYINDTHAKRKLENIEAKIKTLIAKIKEKSNLYQAYKAIVTSILLMRDSLKEVQGIIDKNGVWY
0.00016

Enquiry: Fill in reported koff for this entry: BBK32-C (residues 206-354, B. burgdorferi strain B31) (domain or fragment, BBK32, Borrelia burgdorferi sensu stricto strain B31, residues 206-354; also called BBK32(206-354); source: recombinant, sub-cloned into pT7HMT, purified to homogeneity) SNRYQSYLEGVKYNVDSAIQTITKIYNTYTLFSTKLTQMYSTRLDNFAKAKAKEEAAKFTKEDLEKNFKTLLNYIQVSVKTAANFVYINDTHAKRKLENIEAEIKTLIAKIKEQSNLYEAYKAIVTSILLMRDSLKEVQGIIDKNGVWY
Return: 8.6e-05

Enquiry: For the binder BGD19-C (residues 206-354, B. garinii strain IP90) (domain or fragment) SNRYQSYLEGVKYNVDSAIKTITKIYDTYTLFLTKLTQMYSTRLDNLAKAKAKEEAAKFTKEDLEKNFKTLLNYIQVSVKTATNFVYINDTHAKRKLENIETKIKTLIAKIKEKSNLYQAYKAIVRPILLMRDSLKEVQGAIDKNGIWY , report koff.
Return: 8.1e-05

Enquiry: Answer with reported koff of BBK32(206-348) (residues 206-348, B. burgdorferi strain B31) (domain or fragment, BBK32, Borrelia burgdorferi strain B31, residues 206-348 (lacks six C-terminal residues relative to BBK32-C); also called BBK32-C(206-348); source: recombinant, sub-cloned into pT7HMT, purified to homogeneity) SNRYQSYLEGVKYNVDSAIQTITKIYNTYTLFSTKLTQMYSTRLDNFAKAKAKEEAAKFTKEDLEKNFKTLLNYIQVSVKTAANFVYINDTHAKRKLENIEAEIKTLIAKIKEQSNLYEAYKAIVTSILLMRDSLKEVQGIID
Return: 9.7e-06
